assay_system: T1, CEACAM1 antigen (Sino Biological, Inc.) (UniProt P13688 35-428)
T1 construct: Bought antigen coated on the ELISA plate; construct not described; also called CEACAM1 (CD66a) antigen; CD66a
T1 sequence (looked up): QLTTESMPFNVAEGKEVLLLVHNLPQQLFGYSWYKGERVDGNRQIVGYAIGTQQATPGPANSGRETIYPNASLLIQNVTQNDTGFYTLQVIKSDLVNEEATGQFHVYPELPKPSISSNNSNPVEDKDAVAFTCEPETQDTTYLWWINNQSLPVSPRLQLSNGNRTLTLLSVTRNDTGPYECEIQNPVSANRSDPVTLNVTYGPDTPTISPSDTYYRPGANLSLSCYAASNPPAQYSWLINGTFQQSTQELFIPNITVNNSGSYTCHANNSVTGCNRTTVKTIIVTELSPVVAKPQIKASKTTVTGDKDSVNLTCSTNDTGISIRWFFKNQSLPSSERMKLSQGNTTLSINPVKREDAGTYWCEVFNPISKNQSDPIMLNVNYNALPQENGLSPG
experiment_notes: ELISA, coated CEACAM1 100 ng/well, antibody 123.46 ng/ml
Procedure: Antigen CD66c (CEACAM6; Sino Biological, Inc.) and CEACAM1 antigen (Sino Biological, Inc.) were coated on a 96-well plate at 100 ng per well and then blocked. […] The washing was carried out at three times between each step, and the TMB reaction was performed, stopped with 1N H₂SO₄ solution at the same amount of TMB solution (100 ul) and then OD value was measured at 450 nm. […]
Give measured OD 450 nm for each item. Keep answers brief.
Numeric only. Scale: OD

*Q* Provide only the value of recorded OD 450 nm for anti-CD66c chimeric antibody 8F5 (antibody, human IgG1, V domains shown, also called chimeric 8F5 antibody; chi 8F5) VH: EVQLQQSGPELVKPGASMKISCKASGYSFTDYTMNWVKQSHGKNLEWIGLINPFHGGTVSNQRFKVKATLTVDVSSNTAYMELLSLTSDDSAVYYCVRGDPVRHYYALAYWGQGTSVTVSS VL: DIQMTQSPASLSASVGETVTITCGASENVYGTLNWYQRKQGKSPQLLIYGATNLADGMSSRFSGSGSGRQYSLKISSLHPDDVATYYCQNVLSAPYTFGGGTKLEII
*A* 0.95

*Q* Provide only the value of recorded OD 450 nm for recombinant humanized anti-CD66c antibody Protein ID 3043 (Vk8 + VH6) (antibody, human IgG1, V domains shown, also called hu 3043; #71) VH: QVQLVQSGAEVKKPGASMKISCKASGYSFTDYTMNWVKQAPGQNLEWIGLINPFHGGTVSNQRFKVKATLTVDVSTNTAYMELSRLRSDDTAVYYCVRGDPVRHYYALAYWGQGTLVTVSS VL: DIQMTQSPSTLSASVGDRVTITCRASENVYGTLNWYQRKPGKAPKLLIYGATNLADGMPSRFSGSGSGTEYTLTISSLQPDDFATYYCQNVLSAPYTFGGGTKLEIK
*A* 0.7

*Q* Provide only the value of recorded OD 450 nm for recombinant humanized anti-CD66c antibody Protein ID 2938 (Vk5 + VH7) (antibody, human IgG1, V domains shown, also called hu 2938) VH: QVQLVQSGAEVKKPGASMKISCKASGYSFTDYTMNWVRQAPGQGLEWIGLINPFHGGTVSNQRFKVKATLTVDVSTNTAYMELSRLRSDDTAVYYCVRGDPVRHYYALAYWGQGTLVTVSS VL: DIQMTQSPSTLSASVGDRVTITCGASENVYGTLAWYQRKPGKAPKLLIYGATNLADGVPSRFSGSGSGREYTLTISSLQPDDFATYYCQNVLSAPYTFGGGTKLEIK
*A* 0.1

*Q* Provide only the value of recorded OD 450 nm for recombinant humanized anti-CD66c antibody Protein ID 3007 (Vk7 + VH6) (antibody, human IgG1, V domains shown, also called hu 3007; #43) VH: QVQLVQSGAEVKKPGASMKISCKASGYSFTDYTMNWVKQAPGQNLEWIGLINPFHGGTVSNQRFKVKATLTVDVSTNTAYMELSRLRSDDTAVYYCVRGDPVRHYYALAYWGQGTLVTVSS VL: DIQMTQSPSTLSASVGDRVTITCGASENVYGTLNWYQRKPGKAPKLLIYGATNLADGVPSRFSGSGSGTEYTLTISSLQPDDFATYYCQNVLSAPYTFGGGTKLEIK
*A* 0.82
